# System: c-Abl (mouse)
# ASSAY NOTES: phosphorylation enrichment, bacterial display (enrichment ratio); higher = better substrate or ligand; peptides without Tyr show the background
MEASURE: phosphorylation enrichment

Worked examples, 4 sequences total:
FGSLLYKFAFK [FANCD2_Y458_YF] :: 0.726
IHFAIYLLKFS [ARMC9_Y107_YF] :: 0.668
NIISFYLSRDP [CTSD_Y232_F229I] :: 0.655
RVDRDYVLKSA [HTATIP2_Y111] :: 0.709

Problem: GET /values?readout=phosphorylation enrichment&item= KLMTEYKKRKQ [ARFGEF3_Y2029]
Result: 0.629

Problem: Same thing, different sequence: QLAPQYTYAQG [FLNA_Y1761]
Result: 0.61

Problem: Also, AQESNYRLLRQ [SLC20A2_Y377_R382Q] please.
Result: 0.634

Problem: Now consider LKEIRYPPFTD [ALDH3B2_Y362_H361R_YF] .
Result: 1.06

Problem: # iterate: HRDSSYFWEIE [RAF1_Y340_Q335H_YF]
Result: 1.13

Problem: What would you report for TTKAKYKTPTF [PLD2_Y573_YF] ?
Result: 0.551

Problem: Proceed to MARDIYQASYY [LTK_Y672_R673Q]
Result: 3.09

Problem: Now consider VQVAFYTVMMN [SPATA17_Y84_M86V_YF] .
Result: 1.07

Problem: And what about the sequence VNFDFYTVNLG [GFPT1_Y367_D366Y_YF] ?
Result: 0.762

---

Here, each record is paired with measured SH2 binding enrichment data.
# SUBJECT OF TEST: c-Src SH2
# ASSAY NOTES: SH2 binding enrichment of the phosphorylated peptide, bacterial display (enrichment ratio); higher = better substrate or ligand; peptides without Tyr show the background
Form rule: numeric answer, no unit written next to it.

A selection of reference data follows.
GHLYAYDWISI [BEST1_Y227] :: 1.76
LLVVLYKYRCY [PSEN1_Y154] :: 0.777
TWQSMYGCDVG [HLA-B_Y123_L119W] :: 0.684
SLDHPFEKPRK [INAVA_Y333_Y333F] :: 0.508
EAVSIYQFFGQ [CBLC_Y402_H405Y_YF] :: 0.654
GVTLLYFGRDN [ADGRD1_Y85_Y89D_YF] :: 1.16
KGIQLYDTPYE [SHB_Y297] :: 4.71
AARVSYRLASG [DCHS1_Y1582] :: 0.409
MFDKEYFSVHN [MET_Y1234_YF] :: 0.548
HEVHIYENSGA [ARPC1B_Y35_K37N] :: 6.64

Problem: Fill in: SH2 binding enrichment of FGSLLYKFAFK [FANCD2_Y458_YF] is ___
Result: 0.449

---

# phosphorylation enrichment per entry
# Test system: Fer (mouse)
# ASSAY NOTES: phosphorylation enrichment, bacterial display (enrichment ratio); higher = better substrate or ligand; peptides without Tyr show the background

MTKEQYIKMNR [ARFGEF2_Y797] :: 0.346
HNLDYYKETTN [FGFR3_Y648_K650E] :: 0.766
AQESNYRLLRQ [SLC20A2_Y377_R382Q] :: 0.479

Problem: Value lookup for phosphorylation enrichment; key = LGLDECLDKLK [FMNL2_Y352_Y352C]
Result: 1.31

Problem: Thanks! And LAIELYVVVCK [RHO_Y136_R135L] ?
Result: 1.17

Problem: Next record, please: FGGTVCHSPVS [PRC1_Y511_Y511C]
Result: 0.452

Problem: Also DTLLEYLENPK [CYCS_Y68_M66L] ?
Result: 0.576

Problem: Next sequence: QEGPEYWDRNT [HLA-B_Y83]
Result: 0.557

Problem: Quick one: PEFMVYKPQME [CCRL2_Y170_V168M]
Result: 0.476

Problem: Quick one: CTLLPYYSARV [DGKE_Y269]
Result: 0.497

Problem: Next record, please: DFPMGYPSFLA [TBCK_Y153_I151M_YF]
Result: 0.432

Problem: Also check LGSNTYPFLLT [SAG_Y120]
Result: 0.793

Problem: Again, but for QRRYLYYYSYL [PTEN_Y176_V175L]
Result: 0.671

Problem: Repeat with LARDMHDKEFF [MET_Y1230_Y1230H_YF]
Result: 0.362

Problem: Also check SGVVPYEPPEV [TP53_Y220_V216G]
Result: 0.572

Problem: Now this one: DTYDPYLDIAL [USP36_Y268_V271I]
Result: 0.721

Problem: Thanks! And LFMGDYVDRGY [PPP2CA_Y86] ?
Result: 0.612

Problem: Repeat with ISRASYFRKGG [ALK_Y1282_Y1278S_YF]
Result: 0.456

Problem: Try HPAGNYSLSSV [ARFGAP3_Y473_Q468H] next.
Result: 0.619

Problem: // query: FQNSLYAPDFS [FAM92A_Y226_R222Q_YF]
Result: 3.35

Problem: Now this one: PNLILYGDFRQ [MYH7_Y715_R712L]
Result: 0.72

---

# Test system: Fer (mouse)
# ASSAY NOTES: phosphorylation enrichment, bacterial display (enrichment ratio); higher = better substrate or ligand; peptides without Tyr show the background
Overview of reported phosphorylation enrichment across a group of sequences:
The reply should be a number, written without any unit.

Problem: What value of phosphorylation enrichment has been reported for the following sequence? PSPMPYAFCQM [FOXL2_Y215_S217F]
Result: 9.08

Problem: Same read-out for KNRDVSSSDYF [USP24_Y2134_Y2134S] ?
Result: 0.363

Problem: Next: QDTSRYTVSNL [BIRC3_Y245]
Result: 0.501

Problem: What do we get for TQNAVYSAANY [DDX5_Y535_G533A] ?
Result: 2.8

Problem: // repeat for IFGVSYGEFRF [CFTR_Y512_D513G_YF] and report
Result: 0.504

Problem: Entry to check: YVKEPYIQSRF [HIPK4_Y175]
Result: 0.411

Problem: Another sequence: RELGEYALAEF [ALDH1A3_Y492_YF]
Result: 0.699

Problem: Note, next up: FTDPFYDFEIE [ZC3H18_Y372_A368T_YF]
Result: 1.03

Problem: Also TAIFIYIRPKA [OR10C1_Y258_L255I] , if possible.
Result: 0.584

Problem: Follow-up item: PIPAAYNKYDQ [CDC73_Y290_R292K]
Result: 0.394

Problem: Please do the same for RVQQIYSDSDL [MIB1_Y376] as well.
Result: 3.92

Problem: Would you mind doing VRFMAYTDETC [F8_Y450_F455C] as well?
Result: 0.522

Problem: Repeat for the following sequence: SEVVPYEPPEV [TP53_Y220_V216E]
Result: 0.585

Problem: How about this sequence: QRASDYFSQQM [GBP6_Y333_A331S_YF]
Result: 0.667

Problem: Repeat for the following sequence: CTTIHYNYVCN [TP53_Y234_M237V]
Result: 0.696

Problem: Try IDFARYWHGND [MMP11_Y162_D166N] next.
Result: 0.423

Problem: Okay, and RENGPYFTSFP [GDAP2_Y487_YF] ?
Result: 0.591

Problem: For LVSCTYQLARG [FGFR2_Y608] then?
Result: 0.605

Problem: For FADIAYNFRHA [PAH_Y166_G171A_YF] then?
Result: 0.348

---

# Tested on: AncSZ
# ASSAY NOTES: phosphorylation enrichment, bacterial display (enrichment ratio); higher = better substrate or ligand; peptides without Tyr show the background
MEASURE: phosphorylation enrichment
Just the number.

Problem: Can you look up phosphorylation enrichment on AncSZ for FARNSYVAGQY [G6PD_Y107] ?
Result: 0.516

Problem: Next sequence: RLNCIYYKDQT [RS1_Y165_W163C]
Result: 1.01

Problem: EAMPDYKKQLR [SPATA18_Y229_S227P] , same question.
Result: 0.608

Problem: Check MGSYNYLGFPR [SPTLC2_Y178_A182P] too.
Result: 0.806

Problem: Try this sequence next: GLGGVYGGASG [KRT8_Y54_G53V]
Result: 0.514

Problem: Check RTMPDYTSFNT [EPHB2_Y912_I909M] too.
Result: 1.38

Problem: Also PKKKQYTSIHH [APP_Y728_L723P] , if possible.
Result: 0.646

---

# SUBJECT OF TEST: FGFR3 (UniProt P22607)
# Sequence (P22607 whole entry, looked up): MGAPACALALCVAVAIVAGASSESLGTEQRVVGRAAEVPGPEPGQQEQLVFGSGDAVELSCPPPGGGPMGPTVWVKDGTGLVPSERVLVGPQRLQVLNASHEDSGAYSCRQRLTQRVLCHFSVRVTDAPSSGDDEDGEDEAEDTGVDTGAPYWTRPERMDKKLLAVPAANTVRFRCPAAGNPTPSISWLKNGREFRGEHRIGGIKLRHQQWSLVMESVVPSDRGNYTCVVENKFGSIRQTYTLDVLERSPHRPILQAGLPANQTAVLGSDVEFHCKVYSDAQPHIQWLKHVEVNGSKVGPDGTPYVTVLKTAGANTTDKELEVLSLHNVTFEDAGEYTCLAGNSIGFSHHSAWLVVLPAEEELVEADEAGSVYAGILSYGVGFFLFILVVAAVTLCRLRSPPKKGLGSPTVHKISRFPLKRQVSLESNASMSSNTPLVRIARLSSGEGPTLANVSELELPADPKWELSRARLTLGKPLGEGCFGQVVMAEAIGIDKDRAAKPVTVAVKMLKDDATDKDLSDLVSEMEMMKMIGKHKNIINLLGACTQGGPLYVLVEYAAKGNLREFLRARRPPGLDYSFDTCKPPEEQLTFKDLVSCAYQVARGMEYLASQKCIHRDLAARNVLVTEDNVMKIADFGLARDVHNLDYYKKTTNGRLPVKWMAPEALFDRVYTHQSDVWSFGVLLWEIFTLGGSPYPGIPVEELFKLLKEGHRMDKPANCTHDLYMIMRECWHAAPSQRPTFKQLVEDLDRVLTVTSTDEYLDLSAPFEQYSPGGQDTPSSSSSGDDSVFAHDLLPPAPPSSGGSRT
# ASSAY NOTES: phosphorylation enrichment, bacterial display (enrichment ratio); higher = better substrate or ligand; peptides without Tyr show the background
phosphorylation enrichment for assorted sequences
Provide a numeric answer; units are not to be included.

EFKDAYKFAAD [BRDT_Y335_YF] :: 0.524
CTTIHYNFMGN [TP53_Y234_C238G_YF] :: 0.523

Problem: // returns reported phosphorylation enrichment for input GITVTYTIPKK [UBA5_Y372_A371T]
Result: 0.563

Problem: Proceed to CRPPFYHRNCM [HGD_Y334_F329C_YF]
Result: 0.635

Problem: Likewise for FRASFYRKGGC [ALK_Y1283_YF] ?
Result: 0.532

Problem: Subsequent entry: NVQIVYKPVDL [MAPT_Y627_S622N]
Result: 0.648
